Tgt: acetylcholine receptor (Homo sapiens, UniProt P02708)
Sequence (P02708 21-457): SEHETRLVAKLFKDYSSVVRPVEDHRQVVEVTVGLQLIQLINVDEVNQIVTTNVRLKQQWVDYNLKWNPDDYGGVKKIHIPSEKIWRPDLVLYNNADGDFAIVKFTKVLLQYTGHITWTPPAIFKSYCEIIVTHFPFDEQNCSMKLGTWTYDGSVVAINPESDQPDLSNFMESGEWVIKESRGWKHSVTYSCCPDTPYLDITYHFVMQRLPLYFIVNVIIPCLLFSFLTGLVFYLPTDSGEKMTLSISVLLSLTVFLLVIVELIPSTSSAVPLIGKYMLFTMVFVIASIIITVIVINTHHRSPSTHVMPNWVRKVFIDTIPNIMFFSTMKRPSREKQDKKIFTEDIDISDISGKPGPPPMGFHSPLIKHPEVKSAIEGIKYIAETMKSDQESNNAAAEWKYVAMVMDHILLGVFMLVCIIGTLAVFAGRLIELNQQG
Test summary: SPR binding affinity (RU) of optimized 5mer/6mer/7mer peptides, Examples 6-7
Stated conditions: SPR, Resonance Units; peptides tested at 10 μM; 6mer-2 Bottom sequence
Protocol: Based on the frequencies of occurrence of the top 7 amino acids from Table 7 in Example 5, 600 peptides comprising these amino acids (top combinations) and those comprising the 13 less frequently occurring amino acids (bottom combinations) were synthesized for each series of 5mer, 6mer-1, and 6mer-2. The binding affinity of each sequence for the acetylcholine receptor was measured using Surface Plasmon Resonance (SPR) analysis method. The peptides were tested at a concentration of 10 μM. […]
Binning scheme for Binding affinity: group 1 (below 20 Ru), group 2 (20 Ru to below 30 Ru), group 3 (30 Ru or more)

Example entries begin here.
# Substance, Label value
rows = [
    ("6mer-2-839 (KNHNRR)", "group 3"),
    ("6mer-2-840 (KDWDRK)", "group 1"),
    ("6mer-2-979 (KKAFKK)", "group 2"),
]

[in] For this substance, which bin applies? 6mer-2-697 (KCAVKK)
[out] group 1

[in] For this substance, which bin applies? 6mer-2-893 (REHVRR)
[out] group 1

[in] For this substance, which bin applies? 6mer-2-817 (KCNDKK)
[out] group 2

[in] For this substance, which bin applies? 6mer-2-905 (RPKERR)
[out] group 2

* * *

Tgt: acetylcholine receptor (Homo sapiens)
Test summary: SPR binding affinity (RU) of optimized 5mer/6mer/7mer peptides, Examples 6-7
Stated conditions: SPR, peptides at 10 μM; 6mer-2 Bottom sequence
Mark label 1 only for Binding affinity values smaller than 30 Ru; exact matches and larger values are label 0.

# Substance, Label value
measured = [
    ("6mer-2-1108 (KKKVRR)", "label 0"),
    ("6mer-2-1022 (KCNPRR)", "label 1"),
    ("6mer-2-1132 (RPWERR)", "label 0"),
]

[in] Report whether reported Binding affinity is lower than 30 Ru (strictly) for 6mer-2-1053 (KEMGKK)
[out] label 0

[in] Report whether reported Binding affinity is lower than 30 Ru (strictly) for 6mer-2-1145 (RIKNRR)
[out] label 1

[in] Report whether reported Binding affinity is lower than 30 Ru (strictly) for 6mer-2-1057 (RKKKKK)
[out] label 1

[in] Report whether reported Binding affinity is lower than 30 Ru (strictly) for 6mer-2-1190 (KACIRR)
[out] label 0

[in] Report whether reported Binding affinity is lower than 30 Ru (strictly) for 6mer-2-1121 (KPSKRR)
[out] label 1

[in] Report whether reported Binding affinity is lower than 30 Ru (strictly) for 6mer-2-1080 (RKHKKK)
[out] label 1

* * *

Tgt: acetylcholine receptor (Homo sapiens)
Test summary: SPR binding affinity (RU) of optimized 5mer/6mer/7mer peptides, Examples 6-7
Stated conditions: SPR, peptides at 10 μM; 6mer-2 Bottom sequence
Here the recorded Binding affinity is given for each entry.
The reply should contain only the number, in Ru.

Solved cases below.
# Substance, Binding affinity [Ru]
data = [
    ("6mer-2-1196 (RESKKR)", 39),
    ("6mer-2-1016 (RNEEKR)", 41),
    ("6mer-2-1177 (RASEKR)", 41),
    ("6mer-2-1151 (RYPVRK)", 43),
]

[in] Bench note: what Binding affinity did 6mer-2-998 (KEMWKK) show?
[out] 43

[in] Bench note: what Binding affinity did 6mer-2-1083 (KTKGKR) show?
[out] 39

[in] Bench note: what Binding affinity did 6mer-2-1200 (RHHNRR) show?
[out] 30

[in] Bench note: what Binding affinity did 6mer-2-1076 (RYCIRR) show?
[out] 34

[in] Bench note: what Binding affinity did 6mer-2-1086 (KNDWRK) show?
[out] 21

[in] Bench note: what Binding affinity did 6mer-2-1032 (KETVKR) show?
[out] 31

[in] Bench note: what Binding affinity did 6mer-2-1181 (KACWKR) show?
[out] 32

[in] Bench note: what Binding affinity did 6mer-2-995 (KFWEKK) show?
[out] 38

# credit: patent US20250011363A1
